Origin of measurements: the supplement of paper PMC9170038

Test system: MS2 coat protein
Assay: apparent KD of MS2 coat protein; designed switch direction (-1 OFF switch, 1 ON switch): -1; higher = weaker reporter binding
Details: input ligand: FMN 200 uM
result.type: apparent KD of MS2 coat protein (nM)
Provide only the numeric value, understood in nM.

Completed entries (count: 3):
# seq.string, apparent KD of MS2 coat protein, nM
rows = [
    ("AUCGUACAGCAAAGCUGUACGAGUACAUGAGGAUCACCCAUGUAGGAUAUGGUACGCAAAGCGUGCUAGAAGGAUAUGAGAUUU [Mat - Exclusion NG 3 - Mod of JL - D101] (Eterna round: R96, puzzle: Exclusion NG 3)", 48.5),
    ("UUAAUUAAUUAUAUAAGAUCACAUGAGGAUCACCCAUGUAUAUAGGAUAUCAGCUCGUGUAGAGCUGAGAAGGAUAUACAAUAU [ExNG3/3-B3] (Eterna round: R96, puzzle: Exclusion NG 3)", 241),
    ("GUUUGCGCAGGAUAUACUCCUCCAUGUUAAGAGCAUGUGCGACAUGAGGAUCACCCAUGUAGAAGGGCGAGACG [Eternabot (L2) Solution 8] (Eterna round: R97, puzzle: Exclusion 2)", 194),
]

Query sequence follows.
Which measured apparent KD of MS2 coat protein value corresponds to UUUUUAUAUGAAGGAUAUACUUAACAUGAGGAUCACCCAUGUGGUGUUGUGAGUGAGUGAGUUUAGUAGAAGGUCAAUUCUUUA [JMF's solution 83] (Eterna round: R96, puzzle: Exclusion NG 2) ?
866

---

Tested on: MS2 coat protein
Test: apparent KD of MS2 coat protein; designed switch direction (-1 OFF switch, 1 ON switch): 1; higher = weaker reporter binding
Conditions: input ligand: microRNA oligo, concentration not stated
Label scheme for apparent KD of MS2 coat protein: lower than 70 nM is label 0, 70 nM and above is label 1.

Example entries and their recorded answers appear below.
# seq.string, target.of.assay, answer.label
data = [
    ("UGUUGUAUUACAGGAUAUCUAUUAUUAUUAUUUAGAGAAGGGUAUUCACAUGAGGAUCACCCAUGUAUAUACGAGGAAGUUGUG [JMF's solution 17] (Eterna round: R96, puzzle: Same State NG 1)", "MS2 coat protein", "label 0"),
    ("GUGGUCAGACAUGAGGAUCACCCAUGUGGAAUAAAUAACGGACAGGAUAUUCAAUAUAGGAUAUAGAAGAAGGGUUGAUUGGUG (Eterna round: R96, puzzle: Same State NG 3)", "MS2 coat protein", "label 1"),
    ("GUGGUCAGACAUGAGGAUCACCCAUGUGGAAUAAAUAAGGUACAGGAUAUCUAAUAUAGGAUAUAAGAGAAGGGUAGGUUGGUG (Eterna round: R96, puzzle: Same State NG 3)", "MS2 coat protein", "label 0"),
]

Could you verify whether the entry AAUUAAGAUCAAGGAUAUCACGUCGUUUAGACGUGAGAAGGUGAUCCAUACAUGAGGAUCACCCAUGUAUAACAUGAAUUAAUU [SSNG1/8-B3] (Eterna round: R96, puzzle: Same State NG 1) shows apparent KD of MS2 coat protein of no less than 70 nM?
label 1

---

System: MS2 coat protein
Assay: apparent KD of MS2 coat protein; designed switch direction (-1 OFF switch, 1 ON switch): -1; higher = weaker reporter binding
Conditions: input ligand: none
Attribute: apparent KD of MS2 coat protein
Please respond with the number in nM and leave the unit unwritten.

Consider the reported apparent KD of MS2 coat protein for these sequences:
# seq.string, target.of.assay, unit.text, apparent KD of MS2 coat protein
data = [
    ("UGAGCUUCAGGAUAUACAAGGCGACCGUGAGGUCGAAGGUUACAUGAGGAUCACCCAUGUAGAAGGGAAGUUCU [Mat - Exclusion 2 - JL Mod - D13] (Eterna round: R97, puzzle: Exclusion 2)", "MS2 coat protein", "nM", 21.6),
    ("UCGUGUCGAGAGGAUAUCUAGGACACCCUUCCAAGAGAAGGCUUGACAUGAGGAUCACCCAUGUACGGGUAAAU [EX6 A.9] (Eterna round: R97, puzzle: Exclusion 6)", "MS2 coat protein", "nM", 39.9),
    ("ACAUGUCAUUGAGGAUAUUGCACACAUGAGGAUCACCCAUGUAUACGGUUGCUCUUACGUGAGUUCGAGAAGGCGAUGUACAUU [Ex NG2 #88] (Eterna round: R96, puzzle: Exclusion NG 2)", "MS2 coat protein", "nM", 181),
    ("CGUAAGCUAGGAUAUGCUUUGGGAAAGCAUUCCUUCGAUAAACUUGAGGAUCACCCAAGUAGAAGGAGCUUACU [salish99_ex2_r4_011] (Eterna round: R97, puzzle: Exclusion 2)", "MS2 coat protein", "nM", 12.5),
    ("AGAUAUAGAGGAUAUUUGCGGGAACACAUGAGGAUCACCCAUGUCGAAUAGACGCCCUAUAAAGAAGGCUAGACUG [Eternabot (L2) Solution 86] (Eterna round: R97, puzzle: Exclusion 5)", "MS2 coat protein", "nM", 32.8),
]

API: value(readout= apparent KD of MS2 coat protein, system= MS2 coat protein, query= AGGUGUAGAGGAUAUCUCUUCUCUCACAUGAGGAUCACCCAUGUCCUGGGCACCAAGGAGAGAGAAGGCUACACCA [Omei Ex5 D10] (Eterna round: R97, puzzle: Exclusion 5) )
271

Provide the documented apparent KD of MS2 coat protein with MS2 coat protein as the system for GCAAGCUUUUGCUCGCCUUACAUGAGGAUCACCCAUGUGGGCCCGGGCCCGGGCCCGCCGGGCCCGGGCCCGGGCCC [-59.4, -80.7 kcal, A 10%] (Eterna round: R97, puzzle: Sensor, turn-off variant 1)
32.2

Lab note: need apparent KD of MS2 coat protein with MS2 coat protein for entry AGUUGGCGAGGAUAUACAUGAGGAUCACCCAUGUGAAAUUAAAGUGAGUAAAUGAAAAGUAGAAGGCGCUGACA [Mod of Mat 21 - Jieux - Exclusion 3] (Eterna round: R97, puzzle: Exclusion 3) , please look it up.
40.3

Field: apparent KD of MS2 coat protein (MS2 coat protein). Entry: CGGGUGAAUAGAGGAUAUAGUACAUGAGGAUCACCCAUGUAAUAAAUGAGAAUUUCGAAUGUAAUCUAGAAGGCUAGAAAACCC [Ostracism 99 - Jieux - Exclusion NG 2] (Eterna round: R96, puzzle: Exclusion NG 2)
274
